// reported folding stability dG unfold for each item listed
assay: folding stability dG unfold from chymotrypsin proteolysis; higher = more stable
Write the answer as a number in kcal/mol, unit excluded.

Query: Suppose we examine the sequence SAGMVIKVEVIYNGKKYTIEISEEQLKELLEKLKPGDEVEIEINGEKVLVRVEVVEPPEPSEEELKALKSAG [r5_669_TrROS_Hall] ; what folding stability dG unfold value has been reported?
Reply: 2.1

Query: Consider next the sequence SAGGFKEIKKKLGVKKEDKVILDLEVNFGKKPKFFKVEFEVDKLEEIVKELGIPKENLKIVKAVVIKESAGG [r13_681_TrMRF] in the same way.
Reply: 1.16

Query: Consider next the sequence SMTLITLTDPVTNVPVEKVEVRKLEDGTYEATVTTKEPSKTTTKTYPLPPDEKITDVLKSLGLKEAEINLSA [r9_492_JUSTAS] in the same way.
Reply: 0.538

// provenance: the supplement of paper PMC12764529
